Test system: HCV replicon, genotype-1a variant with glutamine 30 changed to glutamate in the NS5A protein
PROCEDURE_TEXT: microbe, parasite or virus in culture
Format: cell-based, HCV genotype 1a
CONDITION_CONTEXT: HCV replicon genotype 1a Q30E (Q→E) variant; test compound titrated with an NS5A-targeting compound (BMS-790052 fixed at 200 nM); ranking of synergist activity
REPORTED_METRIC: Fold-Synergistic 1a (Q30E)

Q) Tell me its Fold-Synergistic 1a (Q30E) given CC1(C)OC(=O)CC1C(=O)N[C@H](c1nc(-c2ccc(-c3ccc(-c4c[nH]c([C@@H](NC(=O)C5CC(=O)OC5(C)C)C(C)(C)C)n4)cc3)cc2)c[nH]1)C(C)(C)C (some centres unmarked) [Compound S-279] as the entry.
A) >10 fold

Q) Tell me its Fold-Synergistic 1a (Q30E) given CC1(OC(=O)N2C[C@H](F)C[C@H]2C(=O)N[C@H](c2nc(-c3ccc(-c4ccc(-c5c[nH]c([C@@H](NC(=O)[C@@H]6C[C@@H](F)CN6C(=O)OC6(C)CC6)C(C)(C)C)n5)cc4)cc3)c[nH]2)C(C)(C)C)CC1 [Compound W-119] as the entry.
A) >100 fold

Q) Tell me its Fold-Synergistic 1a (Q30E) given C=C1C[C@@H](C(=O)N[C@H](c2nc(-c3ccc(-c4ccc(-c5c[nH]c([C@@H](NC(=O)[C@@H]6CC(=C)CN6C(=O)OC(C)(C)C)C(C)C)n5)cc4)cc3)c[nH]2)C(C)C)N(C(=O)OC(C)(C)C)C1 [Compound W-89] as the entry.
A) >100 fold

Q) Tell me its Fold-Synergistic 1a (Q30E) given O=C([C@H]1CCCO1)N1CCC[C@H]1c1ncc(-c2ccc(-c3ccc(-c4cnc([C@@H]5CCCN5C(=O)[C@H]5CCCO5)[nH]4)cc3)cc2)[nH]1 [Compound S-111] as the entry.
A) <10 fold

Q) Tell me its Fold-Synergistic 1a (Q30E) given CC(C)[C@H](NC(=O)C1(C)CCCCC1)c1nc(-c2ccc3c(c2)Cc2cc(-c4c[nH]c([C@@H](NC(=O)C5(C)CCCCC5)C(C)C)n4)ccc2-3)c[nH]1 [Compound N-69] as the entry.
A) >100 fold

###

Tested on: HCV replicon, genotype-1a variant with glutamine 30 changed to glutamate in the NS5A protein
PROCEDURE_TEXT: microbe, parasite or virus in culture
Type: cell-based, HCV genotype 1a
CONDITION_CONTEXT: HCV replicon genotype 1a Q30E (Q→E) variant; test compound titrated with an NS5A-targeting compound (BMS-790052 fixed at 200 nM); ranking of synergist activity
I'd appreciate it if you could supply Fold-Synergistic 1a (Q30E) values for the items below.

Q) Tell me its Fold-Synergistic 1a (Q30E) given CC(C)(C)OC(=O)N1CCCC[C@H]1C(=O)N[C@H](c1nc(-c2ccc(-c3ccc(-c4c[nH]c([C@@H](NC(=O)[C@@H]5CCCCN5C(=O)OC(C)(C)C)C(C)(C)C)n4)cc3)cc2)c[nH]1)C(C)(C)C as the entry.
A) >100 fold

Q) Tell me its Fold-Synergistic 1a (Q30E) given O=C(C1Cc2ccccc2O1)N1CCC[C@H]1c1ncc(-c2ccc(-c3ccc(-c4cnc([C@@H]5CCCN5C(=O)C5Cc6ccccc6O5)[nH]4)cc3)cc2)[nH]1 (stereo partly drawn) as the entry.
A) >10 fold

Q) Tell me its Fold-Synergistic 1a (Q30E) given CC(C)N(C(=O)C(=O)N[C@H](c1nc(-c2ccc(-c3ccc(-c4c[nH]c([C@@H](NC(=O)C(=O)N(C(C)C)C5CC5)C(C)(C)C)n4)cc3)cc2)c[nH]1)C(C)(C)C)C1CC1 as the entry.
A) >100 fold

###

System: HCV replicon, genotype-1a variant with glutamine 30 changed to glutamate in the NS5A protein
PROCEDURE_TEXT: microbe, parasite or virus in culture
Format: cell-based, HCV genotype 1a
CONDITION_CONTEXT: HCV replicon genotype 1a Q30E (Q→E) variant; test compound titrated with an NS5A-targeting compound (BMS-790052 fixed at 200 nM); ranking of synergist activity
I'd appreciate it if you could supply Fold-Synergistic 1a (Q30E) values for the items below.

Q) Tell me its Fold-Synergistic 1a (Q30E) given Cc1nnc(C(=O)N[C@H](c2nc(-c3ccc(-c4ccc(-c5c[nH]c([C@@H](NC(=O)c6nnc(C)o6)C(C)(C)C)n5)cc4)cc3)c[nH]2)C(C)(C)C)o1 as the entry.
A) >10 fold

Q) Tell me its Fold-Synergistic 1a (Q30E) given CC[C@H](NC(=O)[C@H](NC(=O)OC)C(C)C)c1nc(-c2ccc(-c3ccc(-c4c[nH]c([C@H](CC)NC(=O)[C@H](NC(=O)OC)C(C)C)n4)cc3)cc2)c[nH]1 as the entry.
A) >100 fold

Q) Tell me its Fold-Synergistic 1a (Q30E) given CC(C)(C)[C@H](NC(=O)C(=O)N1CCOCC1)c1nc(-c2ccc(-c3ccc(-c4c[nH]c([C@@H](NC(=O)C(=O)N5CCOCC5)C(C)(C)C)n4)cc3)cc2)c[nH]1 as the entry.
A) >100 fold

Q) Tell me its Fold-Synergistic 1a (Q30E) given CC(C)(C)OC(=O)N1C[C@H]2CC2[C@H]1C(=O)N[C@H](c1nc(-c2ccc(-c3ccc(-c4c[nH]c([C@@H](NC(=O)[C@@H]5C6C[C@@H]6CN5C(=O)OC(C)(C)C)C5(C)CC5)n4)cc3)cc2)c[nH]1)C1(C)CC1 (stereo partly shown) as the entry.
A) >100 fold

Q) Tell me its Fold-Synergistic 1a (Q30E) given CN(C)C(=O)C(C)(C)C(=O)N[C@H](c1nc(-c2ccc(-c3ccc(-c4c[nH]c([C@@H](NC(=O)C(C)(C)C(=O)N(C)C)C(C)(C)C)n4)cc3)cc2)c[nH]1)C(C)(C)C as the entry.
A) >100 fold

Q) Tell me its Fold-Synergistic 1a (Q30E) given O=C(c1cccnc1)N1CCC[C@H]1c1ncc(-c2ccc(-c3ccc(-c4cnc([C@@H]5CCCN5C(=O)c5cccnc5)[nH]4)cc3)cc2)[nH]1 as the entry.
A) <10 fold

Q) Tell me its Fold-Synergistic 1a (Q30E) given CC(C)(C)[C@H](NC(=O)[C@@]1(C)CC(F)(F)CCO1)c1nc(-c2ccc(-c3ccc(-c4c[nH]c([C@@H](NC(=O)[C@@]5(C)CC(F)(F)CCO5)C(C)(C)C)n4)cc3)cc2)c[nH]1 as the entry.
A) >100 fold

Q) Tell me its Fold-Synergistic 1a (Q30E) given CC(C)(C)OC(=O)N[C@]1(C(=O)N[C@H](c2nc(-c3ccc(-c4ccc(-c5c[nH]c([C@@H](NC(=O)[C@@]6(NC(=O)OC(C)(C)C)C[C@@H]6c6ccccc6)C(C)(C)C)n5)cc4)cc3)c[nH]2)C(C)(C)C)C[C@@H]1c1ccccc1 as the entry.
A) >100 fold

Q) Tell me its Fold-Synergistic 1a (Q30E) given CCOC(=O)C(C)(C)C(=O)N[C@H](c1nc(-c2ccc(-c3ccc(-c4c[nH]c([C@@H](NC(=O)C(C)(C)C(=O)OCC)C(C)(C)C)n4)cc3)cc2)c[nH]1)C(C)(C)C as the entry.
A) >100 fold

Q) Tell me its Fold-Synergistic 1a (Q30E) given CC(C)CC(=O)NC(C)(C)c1nc(-c2ccc(-c3ccc(-c4c[nH]c(C(C)(C)NC(=O)CC(C)C)n4)cc3)cc2)c[nH]1 as the entry.
A) <10 fold

###

Tested on: HCV replicon, genotype-1a variant with glutamine 30 changed to glutamate in the NS5A protein
PROCEDURE_TEXT: microbe, parasite or virus in culture
Assay type: cell-based, HCV genotype 1a
CONDITION_CONTEXT: HCV replicon genotype 1a Q30E (Q→E) variant; test compound titrated with an NS5A-targeting compound (BMS-790052 fixed at 200 nM); ranking of synergist activity
I'd appreciate it if you could supply Fold-Synergistic 1a (Q30E) values for the items below.

Q) Tell me its Fold-Synergistic 1a (Q30E) given O=C(NC(c1nc(-c2ccc(-c3ccc(-c4c[nH]c(C(NC(=O)C5CCC(F)(F)CC5)C5(C(F)(F)F)CC5)n4)cc3)cc2)c[nH]1)C1(C(F)(F)F)CC1)C1CCC(F)(F)CC1 (centres unmarked) [Compound N-109B] as the entry.
A) >100 fold

Q) Tell me its Fold-Synergistic 1a (Q30E) given CC(C)(C)[C@H](NC(=O)C(=O)N1CCCCCC1)c1nc(-c2ccc(-c3ccc(-c4c[nH]c([C@@H](NC(=O)C(=O)N5CCCCCC5)C(C)(C)C)n4)cc3)cc2)c[nH]1 as the entry.
A) >100 fold

Q) Tell me its Fold-Synergistic 1a (Q30E) given O=C(c1cc2ccccc2o1)N1CCC[C@H]1c1ncc(-c2ccc(-c3ccc(-c4cnc([C@@H]5CCCN5C(=O)c5cc6ccccc6o5)[nH]4)cc3)cc2)[nH]1 as the entry.
A) >10 fold

Q) Tell me its Fold-Synergistic 1a (Q30E) given CC(C)(C)[C@H](NC(=O)C1(O)CCCC1)c1nc(-c2ccc(-c3ccc(-c4c[nH]c([C@@H](NC(=O)C5(O)CCCC5)C(C)(C)C)n4)cc3)cc2)c[nH]1 as the entry.
A) >100 fold

Q) Tell me its Fold-Synergistic 1a (Q30E) given CC(C)(C)[C@H](NC(=O)C1(OC(=O)N2CCCCC2)CC1)c1nc(-c2ccc(-c3ccc(-c4c[nH]c([C@@H](NC(=O)C5(OC(=O)N6CCCCC6)CC5)C(C)(C)C)n4)cc3)cc2)c[nH]1 as the entry.
A) >100 fold
